System: S. aureus ATCC 33591 (methicillin-resistant)
Experiment: broth microdilution MIC assay, S. aureus ATCC 33591
Assay type: cell-based
Settings: Staphylococcus aureus, ATCC 33591 / MRSA; Table 3; S. aureus 33591 (MRSA); read-out: S. aureus 33591 (MRSA) MIC
measured metric: MIC

compound	system under test	MIC
C[C@@H](O)[C@H]1C(=O)N2C(C(=O)O)=C(S[C@@H]3C[C@@H](CO)N(C4CCNCC4)C3)[C@H](C)[C@H]12	S. aureus ATCC 33591 (methicillin-resistant)	8 to 32 µg/mL
C[C@@H](O)[C@H]1C(=O)N2C(C(=O)O)=C(S[C@@H]3CCN(CC4CNCCN4S(C)(=O)=O)C3)[C@H](C)[C@H]12 (stereo partly shown)	S. aureus ATCC 33591 (methicillin-resistant)	8 to 32 µg/mL
C[C@@H](O)[C@H]1C(=O)N2C(C(=O)O)=C(S[C@@H]3CCN([C@H]4CC[C@H](N)CC4)C3)[C@H](C)[C@H]12	S. aureus ATCC 33591 (methicillin-resistant)	8 to 32 µg/mL
C[C@@H](O)[C@H]1C(=O)N2C(C(=O)O)=C(S[C@@H]3CCN(C4CCCNC4)C3)[C@H](C)[C@H]12 (stereo partly shown)	S. aureus ATCC 33591 (methicillin-resistant)	8 to 32 µg/mL
C[C@@H](O)[C@H]1C(=O)N2C(C(=O)O)=C(S[C@@H]3CCN(CC4CCNCC4)C3)[C@H](C)[C@H]12	S. aureus ATCC 33591 (methicillin-resistant)	1 to 4 µg/mL
CNCc1ccc(CN2CC[C@@H](SC3=C(C(=O)O)N4C(=O)[C@H]([C@@H](C)O)[C@H]4[C@H]3C)C2)cn1	S. aureus ATCC 33591 (methicillin-resistant)	8 to 32 µg/mL

stdin: For the compound shown here, `CNCc1ccc(CN2CC[C@@H](SC3=C(C(=O)O)N4C(=O)[C@H]([C@@H](C)O)[C@H]4[C@H]3C)C2)cc1` , give the reported MIC.
stdout: 8 to 32 µg/mL

stdin: `C[C@@H](O)[C@H]1C(=O)N2C(C(=O)O)=C(S[C@@H]3CCN(C[C@H]4CCCN4)C3)[C@H](C)[C@H]12` , same question.
stdout: 1 to 4 µg/mL

stdin: What do you have for C[C@@H](O)[C@H]1C(=O)N2C(C(=O)O)=C(S[C@@H]3CCN(C4CCNC4)C3)[C@H](C)[C@H]12 (stereo partly shown) ?
stdout: 8 to 32 µg/mL

stdin: Another compound to look at: `C[C@@H](O)[C@H]1C(=O)N2C(C(=O)O)=C(S[C@@H]3CCN(CCCN)C3)[C@H](C)[C@H]12`
stdout: > 32 µg/mL

stdin: And for `CN[C@H]1CC[C@H](CN2CC[C@@H](SC3=C(C(=O)O)N4C(=O)[C@H]([C@@H](C)O)[C@H]4[C@H]3C)C2)CC1` ?
stdout: 8 to 32 µg/mL

stdin: Continue with `C[C@@H](O)[C@H]1C(=O)N2C(C(=O)O)=C(S[C@@H]3CCN(CCC4CCNCC4)C3)[C@H](C)[C@H]12`
stdout: 1 to 4 µg/mL

----------
Entries and their MIC
Tested on: P. aeruginosa ATCC 27853 (wild-type/QC strain)
Assay: broth microdilution MIC assay, P. aeruginosa ATCC 27853
Format: cell-based
Details: Pseudomonas aeruginosa, ATCC27853; Table 3; P. aeruginosa 27853; read-out: P. aeruginosa 27853 MIC

molecule	MIC
CN[C@H]1CC[C@@H](CN2CC[C@@H](SC3=C(C(=O)O)N4C(=O)[C@H]([C@@H](C)O)[C@H]4[C@H]3C)C2)CC1	1 to 4 µg/mL
CNC[C@H]1CC[C@H](CN2CC[C@@H](SC3=C(C(=O)O)N4C(=O)[C@H]([C@@H](C)O)[C@H]4[C@H]3C)C2)CC1	1 to 4 µg/mL
C[C@@H](O)[C@H]1C(=O)N2C(C(=O)O)=C(S[C@@H]3CCN(CC4CCN(C(=N)N)CC4)C3)[C@H](C)[C@H]12	1 to 4 µg/mL

stdin: Entry CC(C1CCNCC1)N1CC[C@@H](SC2=C(C(=O)O)N3C(=O)[C@H]([C@@H](C)O)[C@H]3[C@H]2C)C1 (stereo partly drawn) has what MIC?
stdout: 8 to 32 µg/mL

stdin: One more molecule: `CNCc1ccc(CN2CC[C@@H](SC3=C(C(=O)O)N4C(=O)[C@H]([C@@H](C)O)[C@H]4[C@H]3C)C2)cn1`
stdout: 8 to 32 µg/mL

stdin: Okay, and C[C@@H](O)[C@H]1C(=O)N2C(C(=O)O)=C(S[C@@H]3CCN(CC4CNCCN4S(C)(=O)=O)C3)[C@H](C)[C@H]12 (stereo partly drawn) ?
stdout: 8 to 32 µg/mL

----------
Overview of reported MIC across a group of molecules:
Test system: S. aureus USA600
Assay: broth microdilution MIC assay, S. aureus USA 600
Type: cell-based
Conditions: Staphylococcus aureus; Table 4; S. aureus USA600; read-out: S. aureus USA600 MIC

molecule	MIC
CN[C@H]1CC[C@H](CN2CC(SC3=C(C(=O)O)N4C(=O)[C@H]([C@@H](C)O)[C@H]4[C@H]3C)C2)CC1	1 to 4 µg/mL
C[C@@H](O)[C@H]1C(=O)N2C(C(=O)O)=C(SC3CN(C[C@H]4CC[C@@H](NC(=N)N)CC4)C3)[C@H](C)[C@H]12	< 1 µg/mL
C[C@@H](O)[C@H]1C(=O)N2C(C(=O)O)=C(SC3CN(C4CCNCC4)C3)[C@H](C)[C@H]12	< 1 µg/mL

stdin: Fill blank: measured MIC of the molecule `CCN[C@H]1CC[C@@H](CN2CC(SC3=C(C(=O)O)N4C(=O)[C@H]([C@@H](C)O)[C@H]4[C@H]3C)C2)CC1` is ____.
stdout: 1 to 4 µg/mL

stdin: Also `C[C@@H](O)[C@H]1C(=O)N2C(C(=O)O)=C(S[C@@H]3CCN(C[C@@H]4CCN(C(=N)N)C4)C3)[C@H](C)[C@H]12` ?
stdout: 1 to 4 µg/mL

stdin: Okay, and C[C@@H](O)[C@H]1C(=O)N2C(C(=O)O)=C(S[C@@H]3CCN(CC4CCNCC4(C)C)C3)[C@H](C)[C@H]12 (stereo partly drawn) ?
stdout: 1 to 4 µg/mL

----------
# maps each entry to its MIC
System: S. aureus USA600
Assay: broth microdilution MIC assay, S. aureus USA 600
Assay type: cell-based
Settings: Staphylococcus aureus; Table 4; S. aureus USA600; read-out: S. aureus USA600 MIC

molecule	MIC
C[C@@H](O)[C@H]1C(=O)N2C(C(=O)O)=C(S[C@@H]3CCN(CC4CCN(CCO)CC4)C3)[C@H](C)[C@H]12	1 to 4 µg/mL
C[C@@H](O)[C@H]1C(=O)N2C(C(=O)O)=C(S[C@@H]3CCN(CC4CCN(CC(N)=O)CC4)C3)[C@H](C)[C@H]12	1 to 4 µg/mL

stdin: Query (molecule): `C[C@@H](O)[C@H]1C(=O)N2C(C(=O)O)=C(SC3CN(C[C@H]4CCNC4)C3)[C@H](C)[C@H]12` ; field requested: MIC
stdout: 1 to 4 µg/mL

stdin: What about this molecule? `C[C@@H](O)[C@H]1C(=O)N2C(C(=O)O)=C(S[C@@H]3CCN(CC4CCN(C(=O)CN)CC4)C3)[C@H](C)[C@H]12`
stdout: 1 to 4 µg/mL

stdin: Now give it for `C[C@@H](O)[C@H]1C(=O)N2C(C(=O)O)=C(SC3CN(C[C@@H]4CNCCO4)C3)[C@H](C)[C@H]12` too.
stdout: 1 to 4 µg/mL

stdin: Same for `CCN[C@H]1CC[C@H](CN2CC(SC3=C(C(=O)O)N4C(=O)[C@H]([C@@H](C)O)[C@H]4[C@H]3C)C2)CC1`
stdout: 1 to 4 µg/mL

stdin: Record: `C[C@@H](O)[C@H]1C(=O)N2C(C(=O)O)=C(S[C@@H]3CCN(CC4CCN(C(=N)N)CC4)C3)[C@H](C)[C@H]12`
stdout: < 1 µg/mL

stdin: Likewise for `C[C@@H](O)[C@H]1C(=O)N2C(C(=O)O)=C(S[C@@H]3CCN(C[C@@H]4CCNC4)C3)[C@H](C)[C@H]12` ?
stdout: 1 to 4 µg/mL

stdin: Lookup `C[C@@H](O)[C@H]1C(=O)N2C(C(=O)O)=C(SC3CN(C[C@H]4CNCCO4)C3)[C@H](C)[C@H]12`
stdout: 1 to 4 µg/mL

stdin: Now the molecule `CNCC(=O)N1CCC(CN2CC[C@@H](SC3=C(C(=O)O)N4C(=O)[C@H]([C@@H](C)O)[C@H]4[C@H]3C)C2)CC1`
stdout: 1 to 4 µg/mL

stdin: // next record C[C@@H](O)[C@H]1C(=O)N2C(C(=O)O)=C(SC3CN(CC4CCCNC4)C3)[C@H](C)[C@H]12 (stereo partly shown)
stdout: 1 to 4 µg/mL

stdin: Queued: `C[C@@H](O)[C@H]1C(=O)N2C(C(=O)O)=C(SC3CN(CCC4CCN(C(=N)N)CC4)C3)[C@H](C)[C@H]12`
stdout: < 1 µg/mL

stdin: Quick one: `C[C@@H](O)[C@H]1C(=O)N2C(C(=O)O)=C(S[C@@H]3CCCN(CC4CCNCC4)C3)[C@H](C)[C@H]12`
stdout: 1 to 4 µg/mL
